# credit: PubChem BioAssay (NCI)

Tested on: RXF 393 renal
ASSAY_NAME: NCI-60 one-dose screen, 48 h
TEST_CONTEXT: 10 µM unless noted
About 83,000 compounds went through this panel and 20% of them were active in at least one assay; those are over-represented in the sample as a whole. Active and inactive are the calls of the source. Rule for the calls: active = growth percent below 10; inactive = the rest.
Hi! Could you answer with just one of these? active, inactive

(Q) What call does the record list for "CCc1ccc(C2=C/C(=C/c3ccccc3)C(=O)N2CCc2ccc(S(N)(=O)=O)cc2)cc1" ?
(A) inactive

Further cases:
(Q) What call does the record list for "CC(C)C1=NOC(=O)C1=Cc1cn(-c2cccnc2)nc1-c1ccccc1" ?
(A) inactive

(Q) For "CN(C)CCOc1ccc(/C(=C(/CCCl)c2ccccc2)c2ccccc2)cc1" then?
(A) active

(Q) For "COc1ccc(-c2nc3ccccn3c2/C=C/C(=O)c2cc(OC)c(OC)c(OC)c2)cc1OC" then?
(A) inactive

(Q) For N#Cc1c(Cl)nc(SCC2CO2)nc1-c1ccccc1 (stereo not given) then?
(A) inactive

* * *

Tested on: NCI-H23 lung
ASSAY_NAME: NCI-60 one-dose screen, 48 h
TEST_CONTEXT: 10 µM unless noted
About 83,000 compounds went through this panel and 20% of them were active in at least one assay; those are over-represented in the sample as a whole. Calls of active or inactive are those of the source. The calls were made as follows: active = growth percent below 10; inactive = the rest.
Hi! Could you answer with just one of these? true (1) = active, false (0) = inactive

(Q) What call does the record list for "C#C[C@]1(O)CC[C@H]2[C@@H]3CC=C4c5nc(Nc6ccccn6)sc5CC[C@]4(C)[C@H]3CC[C@@]21C" ?
(A) false (0)

Further cases:
(Q) What call does the record list for "COc1cc(OC)c(/C=C/C(=O)c2c(N)cc(OC)cc2OC)c(OC)c1" ?
(A) true (1)

(Q) For "CN(C)c1ccc(-c2ccc(-c3ccc(C(=N)N)cc3)s2)cc1" then?
(A) true (1)

(Q) For COc1cc2c(c(OC)c1)C1c3cc(OC)ccc3NC(=O)N1CC2 (stereo not drawn) then?
(A) false (0)

(Q) For "CCCCCCCCCCCCCCCCCCNC(=S)N/N=C/c1ccc(OC)c(OC)c1" then?
(A) false (0)

(Q) For "C=C(C)[C@@H]1CC[C@]2(C(=O)NCCCCCCN(CCCN)CCCN)CC[C@]3(C)[C@H](CC[C@@H]4[C@@]5(C)CC[C@H](OCCCN)C(C)(C)[C@@H]5CC[C@]43C)[C@@H]12" then?
(A) false (0)

(Q) For CCOC(=O)c1nn(C2CCCCO2)c2ccc(NC(=O)Cn3nnc4ccccc43)cc12 (stereo not drawn) then?
(A) false (0)

(Q) For "CCOC(=O)COc1ccc2c(c1)O/C(=C\c1ccc(O)cc1)C2=O" then?
(A) false (0)

(Q) For "COC(=O)c1cc2c(=O)[nH]cc3c2c(n1)CCC3" then?
(A) false (0)

(Q) For "CCOC(=O)COc1c(C)cc(SSc2cc(C)c(OCC(=O)OCC)c(C)c2)cc1C" then?
(A) false (0)

(Q) For CCOC(=O)CC(c1ccccc1)C(C#N)c1ccccc1 (stereo not drawn) then?
(A) false (0)

(Q) For "Cc1ccc(NCCN2CCCCC2)c2c(=O)c3ccccc3sc12" then?
(A) false (0)

(Q) For "N#C/C(C(=O)c1ccccc1)=C1/C(=O)Nc2ccc(F)cc21" then?
(A) false (0)
